- Assay Comment: chemical genetic growth profiling, strain panel (AID 1159580);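 note: tested at 20 µM; growth read once vehicle control cultures reached saturation at 30 °C; 1 = growth at the plate median or of vehicle wells; lower values mean less growth of the strain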
- Conditions Used: S. cerevisiae deletion strains, growth OD, locus YOL078W, strain AVO1, stronger effect = lower value
In all, about 5,500 compounds went through this assay and about 2,000 (36%) were called active. Roughly 18% stayed inconclusive and do not appear here. The list shows a part of the results.
Readings of normalized growth for the listed compounds
Answer as a number with no unit attached.

{"Compound": "C#Cc1cccc(N=Cc2cc(Cl)cc(Br)c2O)c1", "Observed Measurement": 0.104}
{"Compound": "N/C(CSc1ccc(Cl)cc1)=N/OC(=O)c1ccc(C(F)(F)F)cc1", "Observed Measurement": 0.877}

Query "Cc1ccc(C(=O)O/N=C(/N)CSc2ncccc2C(F)(F)F)cc1" yields normalized growth of 1

Record summary for "O=C(NCc1cccs1)c1csc(Cc2c(Cl)cccc2Cl)n1" : reported normalized growth = 0.991

response.value for "Clc1ccc(-c2csc(Nc3ccccc3)n2)s1" (field: normalized growth) = 0.926

Short answer for CCC(C)Cn1c(Sc2ncc([N+](=O)[O-])s2)n[nH]c1=O (stereo unspecified) : normalized growth was 0.856

Summary for this compound, "Cc1cc(C(=O)O/N=C(/N)CSc2ncccc2C(F)(F)F)no1" : normalized growth is 0.998

Values compiled from PubChem BioAssay AID1159580.
